Just for reference, patent US6831075B2 is where these values come from.

- Target System: baculovirus-expressed human trkA cytoplasmic domain (Homo sapiens)
- Construct: baculovirus-expressed human trkA cytoplasmic domain; host or cells: baculovirus expression system
- Sequence (P04629 440-796 limits assumed): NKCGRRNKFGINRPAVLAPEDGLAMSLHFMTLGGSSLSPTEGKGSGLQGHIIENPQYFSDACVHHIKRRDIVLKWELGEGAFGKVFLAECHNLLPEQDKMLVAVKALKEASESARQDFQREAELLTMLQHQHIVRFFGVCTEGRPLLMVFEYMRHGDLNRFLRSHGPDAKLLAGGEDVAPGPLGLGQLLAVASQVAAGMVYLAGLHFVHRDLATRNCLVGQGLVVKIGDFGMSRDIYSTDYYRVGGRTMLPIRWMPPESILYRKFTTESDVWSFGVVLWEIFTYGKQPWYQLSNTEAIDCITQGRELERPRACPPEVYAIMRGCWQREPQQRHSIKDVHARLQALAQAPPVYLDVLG
- Experiment Description: trkA tyrosine kinase inhibition assay (ELISA-based)
- Assay type: biochemical
- Test Settings: 1 uM compound; 40 μM ATP
Parameter Measured: inhibition at 1 µM (%)
One number for each entry, in %.

[[record]]
compound = "Cc1cc(C)c(C=C2C(=O)NN=C2c2cc3ccccc3o2)[nH]1 [Compound 57]"
parameter_measured = "inhibition at 1 µM"
endpoint_result = 33


Please go through the list and note inhibition at 1 µM for each compound.
1. Cc1cc(C)c(C=C2C(=O)NN=C2c2ccco2)[nH]1 [Compound 28]
2. O=C1NN=C(c2cccs2)C1=Cc1c[nH]c2ccccc12 [Compound 38]
3. O=C1NN=C(c2nccs2)C1=Cc1c[nH]c2ccccc12 [Compound 25]
4. Cc1cc(C)c(C=C2C(=O)NN=C2c2nccs2)[nH]1 [Compound 26]

1. 34
2. 40
3. 65
4. 42

====

- Target System: baculoviral GST-MLK3KD (Homo sapiens)
- Construct: 2 μg/ml of baculoviral GST-MLK3KD; GST (N); host or cells: baculovirus expression system
- Sequence (Q16584 117-379 limits assumed): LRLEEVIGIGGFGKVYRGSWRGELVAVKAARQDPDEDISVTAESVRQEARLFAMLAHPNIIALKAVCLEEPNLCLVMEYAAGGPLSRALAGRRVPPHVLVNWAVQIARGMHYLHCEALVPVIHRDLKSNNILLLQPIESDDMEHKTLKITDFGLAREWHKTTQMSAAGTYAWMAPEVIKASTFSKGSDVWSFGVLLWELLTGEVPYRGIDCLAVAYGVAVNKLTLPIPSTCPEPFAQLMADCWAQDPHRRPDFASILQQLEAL
- Experiment Description: Mixed Lineage Kinase-3 inhibition assay (Millipore Multiscreen plate, 32P)
- Assay type: biochemical
- Test Settings: 1 uM compound; 100 μM ATP
Label 1.0 when MLK-3 Kinase % inhibition @ 1 uM >= 40%; otherwise 0.0.

[[record]]
given_smiles = "N#CCCn1cc(C=C2C(=O)NN=C2c2ccco2)c2ccccc21"
cat = 0.0

[[record]]
given_smiles = "CN(C)c1ccc(C=C2C(=O)NN=C2c2ccco2)cc1"
cat = 0.0

[[record]]
given_smiles = "Cn1ccc(C2=NNC(=O)C2=Cc2c[nH]c3ccc(F)cc23)c1"
cat = 1.0


Determine whether measured MLK-3 Kinase % inhibition @ 1 uM meets or exceeds 40% for O=C1NN=C(c2ccoc2)C1=Cc1c[nH]c2ccccc12
0.0

====

- Target System: recombinant human baculovirus-expressed VEGFR1 cytoplasmic domain (Homo sapiens, UniProt P17948)
- Construct: recombinant human baculovirus-expressed VEGFR1 cytoplasmic domain; host or cells: baculovirus expression system
- Sequence (P17948 781-1338 limits assumed): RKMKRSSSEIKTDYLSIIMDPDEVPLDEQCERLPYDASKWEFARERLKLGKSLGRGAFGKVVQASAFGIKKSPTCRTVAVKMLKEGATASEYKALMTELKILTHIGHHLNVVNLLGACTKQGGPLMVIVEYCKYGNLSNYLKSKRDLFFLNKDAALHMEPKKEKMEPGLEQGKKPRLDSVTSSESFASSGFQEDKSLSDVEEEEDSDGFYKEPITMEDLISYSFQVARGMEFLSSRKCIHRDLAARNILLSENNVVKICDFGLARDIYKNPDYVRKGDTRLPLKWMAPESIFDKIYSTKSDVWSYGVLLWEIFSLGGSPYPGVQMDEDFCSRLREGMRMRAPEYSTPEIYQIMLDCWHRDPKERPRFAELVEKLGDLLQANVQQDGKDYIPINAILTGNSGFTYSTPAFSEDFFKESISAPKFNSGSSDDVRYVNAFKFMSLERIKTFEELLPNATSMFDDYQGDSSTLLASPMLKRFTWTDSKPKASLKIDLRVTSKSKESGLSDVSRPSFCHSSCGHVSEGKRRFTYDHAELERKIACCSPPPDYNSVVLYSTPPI
- Experiment Description: VEGFR1 kinase inhibition assay (ELISA-based, time-resolved fluorescence)
- Assay type: biochemical
- Test Settings: 1 uM compound; 30 μM ATP
- Procedure: Inhibition of Vascular Endothelial Growth Factor Receptor-1 Kinase Activity The VEGFR1 kinase activity assay utilizes an ELISA-based format in a 96-well FluoroNUNC Maxisorp plate with a time-resolved fluorescence readout. The plate was coated with 100 μl/well of substrate solution (recombinant human PLC-γ/GST) at a concentration of 40 μg/ml in Tris buffered saline (TBS). […] After 5 min, the fluorescence of the resulting solution was measured using the BMG Fluostar (Model # 403).
Parameter Measured: VEGFR-1 kinase % inhibition @ 1 uM (%)
Give bare numbers, in %.

Before answering, review these 4 worked examples.
[[record]]
given_smiles = "Cc1nc(C)c(C2=NNC(=O)C2=Cc2c[nH]c3ccccc23)s1"
endpoint_result = 39

[[record]]
given_smiles = "Cc1cc(C)c(C=C2C(=O)NN=C2c2sc(C)nc2C)[nH]1"
endpoint_result = 8

[[record]]
given_smiles = "Cc1cc(C)c(C=C2C(=O)NN=C2c2ccccn2)[nH]1"
endpoint_result = 41

[[record]]
given_smiles = "COc1ccc2[nH]cc(C=C3C(=O)NN=C3c3ccoc3)c2c1"
endpoint_result = 23


Now look at this entry.
Returns the measured VEGFR-1 kinase % inhibition @ 1 uM for the input compound. Input: Cc1cc(C)c(C=C2C(=O)NN=C2c2cc(-c3ccc(Cl)cc3)oc2C)[nH]1
5

====

- Target System: recombinant human baculovirus-expressed FGFR1 cytoplasmic domain (Homo sapiens, UniProt P11362)
- Construct: recombinant human baculovirus-expressed FGFR1 cytoplasmic domain; host or cells: baculovirus expression system
- Sequence (P11362 398-822 limits assumed): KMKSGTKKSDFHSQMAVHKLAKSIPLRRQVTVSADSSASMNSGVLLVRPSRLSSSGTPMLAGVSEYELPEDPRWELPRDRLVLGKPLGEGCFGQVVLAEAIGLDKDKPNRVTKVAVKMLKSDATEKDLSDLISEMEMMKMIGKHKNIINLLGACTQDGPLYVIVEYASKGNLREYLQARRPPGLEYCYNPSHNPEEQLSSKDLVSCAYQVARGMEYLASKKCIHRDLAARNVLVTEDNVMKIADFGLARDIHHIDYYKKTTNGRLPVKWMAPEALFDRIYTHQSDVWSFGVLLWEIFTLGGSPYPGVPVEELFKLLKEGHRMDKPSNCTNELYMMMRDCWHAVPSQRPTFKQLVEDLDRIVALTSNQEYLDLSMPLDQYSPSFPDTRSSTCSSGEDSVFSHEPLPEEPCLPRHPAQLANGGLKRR
- Experiment Description: FGFR1 kinase inhibition assay (ELISA-based, time-resolved fluorescence)
- Format: biochemical
- Test Settings: 1 uM compound; 20 μM ATP
Would you mind labelling by FGFR1 % inhibition @ 1 uM? At or over 20% is satisfied, under is not satisfied.

These solved cases illustrate the format of a correct answer.
[[record]]
given_smiles = "O=C1NN=C(c2ccoc2)C1=Cc1c[nH]c2cccc(OCc3ccccc3)c12"
cat = "satisfied"

[[record]]
given_smiles = "O=C1NN=C(c2ccoc2)C1=Cc1c[nH]c2ccc(F)cc12"
cat = "satisfied"

[[record]]
given_smiles = "O=C1NN=C(c2ccoc2)C1=Cc1c[nH]c2ccccc12"
cat = "not satisfied"

[[record]]
given_smiles = "Cn1ccc(C2=NNC(=O)C2=Cc2c[nH]c3ccccc23)c1"
cat = "satisfied"

[[record]]
given_smiles = "Cc1cc(C)c(C=C2C(=O)NN=C2c2csc(-c3ccccc3)n2)[nH]1"
cat = "satisfied"

[[record]]
given_smiles = "Cc1cc(C)c(C=C2C(=O)NN=C2c2ccoc2)[nH]1"
cat = "not satisfied"

[[record]]
given_smiles = "Cc1cc(C)c(C=C2C(=O)NN=C2c2cccn2C)[nH]1"
cat = "satisfied"

[[record]]
given_smiles = "Cc1cc(C)c(C=C2C(=O)NN=C2c2ccccn2)[nH]1"
cat = "satisfied"

[[record]]
given_smiles = "Cn1ccc(C2=NNC(=O)C2=Cc2c[nH]c3cccc(OCc4ccccc4)c23)c1"
cat = "not satisfied"

[[record]]
given_smiles = "O=C1NN=C(c2ccco2)C1=Cc1c[nH]c2cccc(OCc3ccccc3)c12"
cat = "not satisfied"


For the next question, use this compound.
Kindly determine if FGFR1 % inhibition @ 1 uM recorded for Cn1cc(C=C2C(=O)NN=C2c2ccco2)c2ccccc21 is above or exactly 20%.
not satisfied

====

- Target System: recombinant human baculovirus-expressed FGFR1 cytoplasmic domain (Homo sapiens)
- Construct: recombinant human baculovirus-expressed FGFR1 cytoplasmic domain; host or cells: baculovirus expression system
- Experiment Description: FGFR1 kinase inhibition assay (ELISA-based, time-resolved fluorescence)
- Assay type: biochemical
- Test Settings: 1 uM compound; 20 μM ATP
Parameter Measured: FGFR1 % inhibition @ 1 uM (%)
Numbers only, in %.

The following molecules have reported results that may help.
[[record]]
molecule = "N#CCCn1cc(C=C2C(=O)NN=C2c2nccs2)c2ccccc21 [Compound 64]"
endpoint_result = 7

[[record]]
molecule = "O=C1NN=C(c2ccco2)C1=Cc1c[nH]c2ccc(F)cc12 [Compound 48]"
endpoint_result = 43

[[record]]
molecule = "COC(=O)c1ccc2[nH]cc(C=C3C(=O)NN=C3c3ccoc3)c2c1 [Compound 16]"
endpoint_result = 1

[[record]]
molecule = "O=C1NN=C(c2ccoc2)C1=Cc1ncc[nH]1 [Compound 15]"
endpoint_result = 10

[[record]]
molecule = "O=C1NN=C(c2ccco2)C1=Cc1cn(Cc2ccccc2)c2ccccc12 [Compound 69]"
endpoint_result = 30

[[record]]
molecule = "Cc1nc[nH]c1C=C1C(=O)NN=C1c1ccco1 [Compound 53]"
endpoint_result = 50

[[record]]
molecule = "Cc1cc(C)c(C=C2C(=O)NN=C2c2sc(C)nc2C)[nH]1 [Compound 14]"
endpoint_result = 22

[[record]]
molecule = "Cc1cccc2c(C=C3C(=O)NN=C3c3ccoc3)c[nH]c12 [Compound 22]"
endpoint_result = 22


// returns reported FGFR1 % inhibition @ 1 uM for input O=C1NN=C(c2nccs2)C1=Cc1cn(Cc2ccccc2)c2ccccc12 [Compound 70]
21

====

- Target System: recombinant human baculoviral VEGFR2 cyctoplasmic domain (Homo sapiens, UniProt P35968)
- Construct: recombinant human baculoviral VEGFR2 cyctoplasmic domain; host or cells: baculovirus expression system
- Sequence (P35968 786-1356 limits assumed): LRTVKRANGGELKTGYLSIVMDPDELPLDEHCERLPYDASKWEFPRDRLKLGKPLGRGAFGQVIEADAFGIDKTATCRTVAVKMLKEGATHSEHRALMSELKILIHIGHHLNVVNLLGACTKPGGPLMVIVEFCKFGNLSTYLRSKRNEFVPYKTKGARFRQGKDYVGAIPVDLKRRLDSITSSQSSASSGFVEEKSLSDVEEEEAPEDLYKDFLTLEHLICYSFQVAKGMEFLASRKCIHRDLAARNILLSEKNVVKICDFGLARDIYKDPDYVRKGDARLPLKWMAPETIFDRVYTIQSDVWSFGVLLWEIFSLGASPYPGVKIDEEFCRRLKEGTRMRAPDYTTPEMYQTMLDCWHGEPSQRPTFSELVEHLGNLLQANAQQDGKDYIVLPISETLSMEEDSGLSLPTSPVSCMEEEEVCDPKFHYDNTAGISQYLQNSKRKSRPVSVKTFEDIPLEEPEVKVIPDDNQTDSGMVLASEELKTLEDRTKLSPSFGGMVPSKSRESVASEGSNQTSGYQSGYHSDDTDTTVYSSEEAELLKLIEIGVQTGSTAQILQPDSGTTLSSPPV
- Experiment Description: VEGFR2 kinase inhibition assay (ELISA-based, time-resolved fluorescence)
- Type: biochemical
- Test Settings: 1 uM compound; 30 μM ATP
Parameter Measured: VEGFR-2 kinase % inhibition @ 1 uM (%)
Answers are plain numbers, in %.

A selection of reference data follows.
[[record]]
molecule = "O=C1NN=C(c2ccco2)C1=Cc1ncc[nH]1 [Compound 54]"
target_system = "recombinant human baculoviral VEGFR2 cyctoplasmic domain (Homo sapiens, UniProt P35968)"
parameter_measured = "VEGFR-2 kinase % inhibition @ 1 uM"
endpoint_result = 4

[[record]]
molecule = "O=C1NN=C(c2ccoc2)C1=Cc1c[nH]c2ccc(F)cc12 [Compound 19]"
target_system = "recombinant human baculoviral VEGFR2 cyctoplasmic domain (Homo sapiens, UniProt P35968)"
parameter_measured = "VEGFR-2 kinase % inhibition @ 1 uM"
endpoint_result = 44

[[record]]
molecule = "Cc1cc(C)c(C=C2C(=O)NN=C2c2cc(-c3ccc(Cl)cc3)oc2C)[nH]1 [Compound 41]"
target_system = "recombinant human baculoviral VEGFR2 cyctoplasmic domain (Homo sapiens, UniProt P35968)"
parameter_measured = "VEGFR-2 kinase % inhibition @ 1 uM"
endpoint_result = 13


Batch: VEGFR-2 kinase % inhibition @ 1 uM for all items listed.
1. O=C1NN=C(c2nccs2)C1=Cc1cn(Cc2ccccc2)c2ccccc12 [Compound 70]
2. O=C1NN=C(c2ccco2)C1=Cc1cn(CCOCc2ccccc2)c2ccccc12 [Compound 71]

[51, "−1"]
